So I've got a bunch of variants here, and I need their fraction ligated values.
B1: F1*; the commonest letter at each place (parent)
chain: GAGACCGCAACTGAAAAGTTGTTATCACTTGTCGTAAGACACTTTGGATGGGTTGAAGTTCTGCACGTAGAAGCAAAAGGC

Variants of: B1
procedure.summary: fraction ligated after 30 min (ligated reads / total reads); higher = more ligase activity
assay.setup: with F1*sub RNA substrate (template-directed ligation), 42 °C
Answers are plain numbers.

Please give fraction ligated for each item listed below.
1. A24C A36T
2. A27G T43G
3. A24T T25C
4. C28G T49A
5. T30A T35G
6. A36T T45A

Solution:
1: 0.767; 2: 0.796; 3: 0.779; 4: 0.656; 5: 0.827; 6: 0.778

Please give fraction ligated for each item listed below.
1. G31C A48G
2. A36T A37G
3. C33A G46T
4. A37T A48G
5. A41C A48T

Solution:
1: 0.389; 2: 0.842; 3: 0.803; 4: 0.804; 5: 0.736

Please give fraction ligated for each item listed below.
1. G47C G50A
2. A41G A48T
3. T45A G55C
4. G46A A57C
5. T43G T45C
6. A37G G46T
7. T25A A57G
8. G46C T49G

Solution:
[0.059, 0.625, 0.067, 0.793, 0.319, 0.806, 0.345, 0.407]

Please give fraction ligated for each item listed below.
1. G31A G46T
2. C28G
3. G38C G47C
4. C33T A37T
5. T35A A37G
6. T29A T43C

Solution:
1. 0.777
2. 0.797
3. 0.0356
4. 0.854
5. 0.844
6. 0.804

Please give fraction ligated for each item listed below.
1. T35C A57T
2. G38A C42G
3. T32A T43A

Solution:
1: 0.825; 2: 0.837; 3: 0.831

Please give fraction ligated for each item listed below.
1. C26T C42A
2. C28A G47T
3. A36G A56T
4. A27T A37G
5. G46A A48C

Solution:
1. 0.804
2. 0.361
3. 0.873
4. 0.846
5. 0.675

Please give fraction ligated for each item listed below.
1. A24T A48C
2. T25G C26T
3. A24T G47C
4. C28T T49A
5. G38A

Solution:
[0.499, 0.191, 0.0331, 0.743, 0.844]

Please give fraction ligated for each item listed below.
1. T32C G47C
2. C42G G46C

Solution:
0.0784
0.816
